The reported measurements were obtained from patent US20240425491A1.

Recorded measurements of pKi, one per entry
Target: human recombinant GABAAR containing α5β3γ2 subunits (benzodiazepine site) (Homo sapiens, UniProt P18507+P31644)
Construct: expressed in transfected cells; host or cells: mouse L(tk−) cells, dexamethasone-inducible vector pMSGneo
Test: In vitro radioligand binding assay (α5-GABAAR Ki)
Details: inhibition of [3H]Ro15-1788 binding, membranes of L(tk−) cells expressing human α5β3γ2; read-out: α5-GABAAR Ki
Excerpt: Mouse L(tk^−) cells stably expressing human α1β3γ2, α2β3γ2, α3β3γ2, α5β3γ2 GABAARs generated by transfection of the individual subunits in the dexamethasone-inducible expression vector pMSGneo in mouse L(tk^−) cells (Hadingham et al., 1993, Mol. Pharmacol. 43:970-975 and 1993, Mol. Pharmacol. 44:1211-1218) were used for binding and functional assays. […] The % inhibition of [^3H] Ro15-1788 binding was plotted as a function of compound concentration and the IC50 calculated. […]
Keep in mind that pKi stands for -log10 of concentration in molar terms.

Here's what some known entries look like.
COc1nc(-c2cnc(C(=O)NCCN(C)C)nc2)ccc1NC(=O)c1c(-c2ccccc2)noc1C ... 9.70
COc1cc(-c2c(C)n[nH]c2C)cnc1NC(=O)c1c(-c2ccccc2)noc1C ... 7.16

Specify pKi for COc1nc(-c2ccncc2N)ccc1NC(=O)c1c(-c2ccccc2)noc1C and stop.
8.49

Specify pKi for COc1ncc(-c2ccc(NC(=O)c3c(-c4ccccc4)noc3C)c(OC)n2)s1 and stop.
7.14

Specify pKi for COc1nc(-c2cccc([N+](=O)[O-])c2)ccc1NC(=O)c1c(-c2ccccc2)noc1C and stop.
6.98

Specify pKi for Cc1onc(-c2ccc(F)cc2)c1C(=O)Nc1ccc(-c2cnc(N)nc2)nc1OCCO and stop.
7.71

Specify pKi for COc1nc(-c2cnc(N)nc2)ncc1NC(=O)c1c(-c2ccccc2)noc1C and stop.
8.89

Specify pKi for COc1nc(-c2ccn3nc(N(C)C)nc3c2)ccc1NC(=O)c1c(-c2ccccc2)noc1C.Cl [Example 131, hydrochloride] and stop.
8.01

Specify pKi for COc1nc(-c2cnc3[nH]ccc3c2)ccc1NC(=O)c1c(-c2ccccc2)noc1C and stop.
6.86

Specify pKi for COc1nc(-c2cnc(C(=O)N(C)C)nc2)ccc1NC(=O)c1c(-c2ccccc2)noc1C and stop.
8.64

---

Recorded measurements of Ki, one per entry
Target: human recombinant GABAAR containing α5β3γ2 subunits (benzodiazepine site) (Homo sapiens, UniProt P18507+P31644)
Construct: expressed in transfected cells; host or cells: mouse L(tk−) cells, dexamethasone-inducible vector pMSGneo
Experiment: In vitro radioligand binding assay (α5-GABAAR Ki)
Conditions: inhibition of [3H]Ro15-1788 binding, membranes of L(tk−) cells expressing human α5β3γ2; read-out: α5-GABAAR Ki
Excerpt: Mouse L(tk^−) cells stably expressing human α1β3γ2, α2β3γ2, α3β3γ2, α5β3γ2 GABAARs generated by transfection of the individual subunits in the dexamethasone-inducible expression vector pMSGneo in mouse L(tk^−) cells (Hadingham et al., 1993, Mol. Pharmacol. 43:970-975 and 1993, Mol. Pharmacol. 44:1211-1218) were used for binding and functional assays. […] The % inhibition of [^3H] Ro15-1788 binding was plotted as a function of compound concentration and the IC50 calculated. […]
Could you kindly put the unit after your number?

COc1nc(-n2ccnc2)ccc1NC(=O)c1c(-c2ccccn2)noc1C ... 79 nM

Specify Ki for COc1nc(-c2ccc3[nH]nnc3c2)ccc1NC(=O)c1c(-c2ccccc2)noc1C and stop.
7.9 nM

Specify Ki for Cc1onc(-c2ccc(F)cc2)c1C(=O)Nc1ccc(-n2ccnc2)nc1OC(C)C and stop.
1.1 nM

Specify Ki for CNc1ncc(-c2ccc(NC(=O)c3c(-c4ccccc4)noc3C)c(OC)n2)c(C)n1 and stop.
1.2 nM

---

Recorded measurements of pKi, one per entry
molecular target: human recombinant GABAAR containing α5β3γ2 subunits (benzodiazepine site) (Homo sapiens, UniProt P18507+P31644); construct: expressed in transfected cells; host or cells: mouse L(tk−) cells, dexamethasone-inducible vector pMSGneo; experiment: In vitro radioligand binding assay (α5-GABAAR Ki); settings: inhibition of [3H]Ro15-1788 binding, membranes of L(tk−) cells expressing human α5β3γ2; read-out: α5-GABAAR Ki
Keep in mind that pKi stands for -log10 of concentration in molar terms.

Here's what some known entries look like.
COc1nc(-c2c(C)noc2C)ccc1NC(=O)c1c(-c2ccccc2)noc1C ... 7.48
COc1nc(-c2cnc(CN)nc2)ccc1NC(=O)c1c(-c2ccccc2)noc1C.Cl [Example 126, hydrochloride] ... 8.96
COc1nc(-c2cnc(Cl)nc2)ccc1NC(=O)c1c(-c2ccccc2)noc1C ... 8.70
COc1ccc(-c2ccc(NC(=O)c3c(-c4ccccc4)noc3C)c(OC)n2)nn1 ... 7.33
CCOc1ncc(-c2ccc(NC(=O)c3c(-c4ccccc4)noc3C)c(OC)n2)cn1 ... 8.57
COc1nc(-c2ccc(CN3CC4(COC4)C3)cc2)ccc1NC(=O)c1c(-c2ccccc2)noc1C ... 8.48

Consider the additional compound presented here.
Specify pKi for COc1nc(-c2cnccn2)ccc1NC(=O)c1c(-c2ccccc2)noc1C and stop.
7.38

---

biological target: human α5β3γ2 GABAARs in mouse L(tk−) cells (Homo sapiens, UniProt P18507+P31644); construct: expressed in transfected cells; host or cells: mouse L(tk−) cells, dexamethasone-inducible vector pMSGneo; assay: In vitro electrophysiological recording assay (α5-GABAAR relative efficacy), QPatch; format: cell-based; conditions: Conc 1 μM; GABA EC10-20
Sequence (P31644 32-462): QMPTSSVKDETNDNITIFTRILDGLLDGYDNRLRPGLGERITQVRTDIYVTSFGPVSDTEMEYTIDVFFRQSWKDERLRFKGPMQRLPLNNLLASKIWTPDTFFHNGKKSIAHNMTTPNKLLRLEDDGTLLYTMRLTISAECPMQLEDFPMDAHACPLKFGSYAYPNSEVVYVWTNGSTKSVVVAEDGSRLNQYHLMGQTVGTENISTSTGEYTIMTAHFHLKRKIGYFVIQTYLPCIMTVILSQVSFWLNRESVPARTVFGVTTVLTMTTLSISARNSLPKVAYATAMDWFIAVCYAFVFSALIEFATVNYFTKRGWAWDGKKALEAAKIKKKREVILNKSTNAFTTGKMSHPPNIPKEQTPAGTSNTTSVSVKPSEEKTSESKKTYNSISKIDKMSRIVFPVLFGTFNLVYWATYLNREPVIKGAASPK
Sequence (P28472 26-473 partner): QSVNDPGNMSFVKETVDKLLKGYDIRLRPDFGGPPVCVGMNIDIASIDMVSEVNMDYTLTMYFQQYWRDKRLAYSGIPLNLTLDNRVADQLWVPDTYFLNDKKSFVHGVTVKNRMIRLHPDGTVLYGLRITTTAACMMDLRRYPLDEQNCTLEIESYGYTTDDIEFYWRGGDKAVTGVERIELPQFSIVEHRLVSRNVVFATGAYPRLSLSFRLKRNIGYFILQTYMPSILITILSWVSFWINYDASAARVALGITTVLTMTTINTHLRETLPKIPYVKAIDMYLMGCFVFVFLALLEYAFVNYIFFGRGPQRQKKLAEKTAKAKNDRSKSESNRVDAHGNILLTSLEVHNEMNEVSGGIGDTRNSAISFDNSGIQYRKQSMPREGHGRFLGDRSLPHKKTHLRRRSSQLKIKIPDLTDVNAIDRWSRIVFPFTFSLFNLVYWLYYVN
Sequence (P18507 40-475): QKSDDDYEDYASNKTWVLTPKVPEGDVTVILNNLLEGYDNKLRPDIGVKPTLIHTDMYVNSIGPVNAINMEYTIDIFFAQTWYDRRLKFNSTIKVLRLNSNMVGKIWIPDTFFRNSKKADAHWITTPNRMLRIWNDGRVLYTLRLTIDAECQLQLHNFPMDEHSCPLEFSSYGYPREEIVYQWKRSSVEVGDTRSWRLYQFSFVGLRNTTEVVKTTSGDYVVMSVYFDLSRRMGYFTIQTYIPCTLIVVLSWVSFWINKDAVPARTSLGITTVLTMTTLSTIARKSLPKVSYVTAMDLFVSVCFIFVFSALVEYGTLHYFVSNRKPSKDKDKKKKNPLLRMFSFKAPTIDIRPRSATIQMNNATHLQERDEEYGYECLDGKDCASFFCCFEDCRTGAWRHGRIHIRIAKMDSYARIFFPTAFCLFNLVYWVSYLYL
Recorded measurements of α5-GABAAR Relative Efficacy (to DMCM), Qpatch, one per entry
Just the number.

COc1nc(-c2ccc(=O)n(C)c2)cnc1NC(=O)c1c(-c2ccccc2)noc1C ... −0.66
COc1nc(-c2c[nH]c(=O)c(F)c2)cnc1NC(=O)c1c(-c2ccccc2)noc1C ... −0.75
COc1nc(-c2cnc3n2CCNC3)ccc1NC(=O)c1c(-c2ccccc2)noc1C.Cl ... −0.62

Specify α5-GABAAR Relative Efficacy (to DMCM), Qpatch for COc1cc(-n2ccnc2)ccc1NC(=O)c1c(C)nnn1-c1ccccc1 and stop.
−0.82

---

target: human α5β3γ2 GABAARs in mouse L(tk−) cells (Homo sapiens, UniProt P18507+P31644); construct: expressed in transfected cells; host or cells: mouse L(tk−) cells, dexamethasone-inducible vector pMSGneo; assay: In vitro electrophysiological recording assay (α5-GABAAR relative efficacy), QPatch; type: cell-based; conditions: Conc 10 μM; GABA EC10-20
readout.label: α5-GABAAR Relative Efficacy (to DMCM), Qpatch
Just the number.

Here's what some known entries look like.
COc1nc(-c2cnc(CN(C)C)nc2)ccc1NC(=O)c1c(C)nnn1-c1ccccc1 ... −0.71
COc1cc(-c2c(C)noc2C)cnc1NC(=O)c1c(-c2ccccc2)noc1C ... −0.24
COc1nc(-c2c(C)noc2C)ccc1NC(=O)c1c(-c2ccccc2)noc1C ... −0.22

Consider the additional compound presented here.
Specify α5-GABAAR Relative Efficacy (to DMCM), Qpatch for COc1ccc(-c2ccc(NC(=O)c3c(-c4ccccc4)noc3C)c(OC)n2)nn1 and stop.
−0.19

---

Recorded measurements of α5-GABAAR Relative Efficacy (to DMCM), Qpatch, one per entry
biological target: human α5β3γ2 GABAARs in mouse L(tk−) cells (Homo sapiens, UniProt P18507+P31644); construct: expressed in transfected cells; host or cells: mouse L(tk−) cells, dexamethasone-inducible vector pMSGneo; assay: In vitro electrophysiological recording assay (α5-GABAAR relative efficacy), QPatch; type: cell-based; conditions: Conc 0.1 μM; GABA EC10-20
Just the number.

Specify α5-GABAAR Relative Efficacy (to DMCM), Qpatch for COc1nc(-c2ccc(NC(C)=O)nc2)cnc1NC(=O)c1c(-c2ccccc2)noc1C and stop.
−0.67

Specify α5-GABAAR Relative Efficacy (to DMCM), Qpatch for COc1nc(-c2cnc(NC3CNC3)nc2)ccc1NC(=O)c1c(-c2ccccc2)noc1C and stop.
−1.08

Specify α5-GABAAR Relative Efficacy (to DMCM), Qpatch for COc1nc(-c2cnc(NCCO)nc2)ccc1NC(=O)c1c(-c2ccccc2)noc1C and stop.
−0.89

Specify α5-GABAAR Relative Efficacy (to DMCM), Qpatch for COc1nc(-c2cnc(N)nc2)cnc1NC(=O)c1c(-c2ccccc2)noc1C and stop.
−0.94

---

target: human α5β3γ2 GABAARs in mouse L(tk−) cells (Homo sapiens, UniProt P18507+P31644); construct: expressed in transfected cells; host or cells: mouse L(tk−) cells, dexamethasone-inducible vector pMSGneo; assay: In vitro electrophysiological recording assay (α5-GABAAR relative efficacy), QPatch; type: cell-based; conditions: Conc 0.3 μM; GABA EC10-20
Lab note: cut-off is -0.8. Strictly less in α5-GABAAR Relative Efficacy (to DMCM), Qpatch is rule met. Exactly -0.8 or more is rule not met.

I wonder whether COc1nc(-c2ccn3nc(N)nc3c2)ccc1NC(=O)c1c(-c2ccccc2)nnn1C has α5-GABAAR Relative Efficacy (to DMCM), Qpatch below -0.8. Can you tell?
rule met

I wonder whether COc1nc(-c2cnc3n2CCOC3)cnc1NC(=O)c1c(-c2ccccc2)noc1C has α5-GABAAR Relative Efficacy (to DMCM), Qpatch below -0.8. Can you tell?
rule met

I wonder whether Cc1onc(-c2ccccc2)c1C(=O)Nc1ccc(-n2ccnc2)nc1OC(C)C has α5-GABAAR Relative Efficacy (to DMCM), Qpatch below -0.8. Can you tell?
rule not met

I wonder whether COc1nc(-c2cncnc2)ccc1NC(=O)c1c(-c2ccccc2)noc1C has α5-GABAAR Relative Efficacy (to DMCM), Qpatch below -0.8. Can you tell?
rule not met

I wonder whether COc1nc(-c2cnc(N3CCC(O)CC3)nc2)ccc1NC(=O)c1c(-c2ccccc2)noc1C has α5-GABAAR Relative Efficacy (to DMCM), Qpatch below -0.8. Can you tell?
rule met
